Here, each record is paired with measured EC50 data.
Tested on: endogenous target monocytes in human PBMC
measurementProtocol: PBMC ex vivo monocyte depletion flow cytometry assay (Example 200)
Type: cell-based
testParameters: with anti-cotinine antibody (SEQ ID NO: 11/12), 18-24 hours, EC50 in molar, read-out: Ex Vivo Depletion Assay pEC50 (converted)
# output: bare number, implied unit nM

// below: answered compounds
| smilesEntry | readingUnit | EC50 |
| --- | --- | --- |
| CN1C(=O)C[C@H](C(=O)NCCOCCOCCOCCC(=O)N[C@H]2CC[C@@H](C(=O)N[C@@H]3C[C@H](NC(C)(C)C)CC[C@@H]3N3CC[C@H](Nc4ncnc5ccc(C(F)(F)F)cc45)C3=O)CC2)[C@H]1c1cccnc1 | nM | 2 |
| CC(C)N(C)[C@@H]1CC[C@H](N2CC[C@H](Nc3ncnc4ccc(C(F)(F)F)cc34)C2=O)[C@H](NC(=O)[C@H]2CC[C@H](NC(=O)CCCO[C@H]3CC[C@H](OCCNC(=O)[C@H]4CC(=O)N(C)[C@@H]4c4cccnc4)CC3)CC2)C1 | nM | 1.58 |
| CC(C)N(C)[C@@H]1CC[C@H](N2CC[C@H](Nc3ncnc4ccc(C(F)(F)F)cc34)C2=O)[C@H](NC(=O)[C@H]2CC[C@H](N3CCN(C(=O)CCOCCOCCNC(=O)[C@H]4CC(=O)N(C)[C@@H]4c4cccnc4)CC3)CC2)C1 | nM | 1 |
| CC(C)N(C)[C@@H]1CC[C@H](N2CC[C@H](Nc3ncnc4ccc(C(F)(F)F)cc34)C2=O)[C@H](NC(=O)[C@H]2CC[C@H](CNC(=O)CCOCCOCCOCCNC(=O)[C@H]3CC(=O)N(C)[C@@H]3c3cccnc3)CC2)C1 | nM | 0.398 |
| CC(C)N(C)[C@@H]1CC[C@H](N2CC[C@H](Nc3ncnc4ccc(C(F)(F)F)cc34)C2=O)[C@H](NC(=O)COCCNC(=O)[C@H]2CC[C@@H](NC(=O)CCOCCNC(=O)[C@H]3CC(=O)N(C)[C@@H]3c3cccnc3)CC2)C1 | nM | 0.631 |
| CC(C)N(C)[C@@H]1CC[C@H](N2CC[C@H](Nc3ncnc4ccc(C(F)(F)F)cc34)C2=O)[C@H](NC(=O)CCOCCOCCNC(=O)NCCOCCOCCNC(=O)[C@H]2CC(=O)N(C)[C@@H]2c2cccnc2)C1 | nM | 1.58 |

The compound `CC(C)N(C)[C@@H]1CC[C@H](N2CC[C@H](Nc3ncnc4ccc(C(F)(F)F)cc34)C2=O)[C@H](N[C@H]2CC[C@@H](C(=O)NCCOCCOCCOCCOCCNC(=O)[C@H]3CC(=O)N(C)[C@@H]3c3cccnc3)CC2)C1` showed EC50 equal to 3.98

get_value(item= `CC(C)N(C)[C@@H]1CC[C@H](N2CC[C@H](Nc3ncnc4ccc(C(F)(F)F)cc34)C2=O)[C@H](NC(=O)CCOCCNC(=O)CCCO[C@H]2CC[C@H](OCCNC(=O)[C@H]3CC(=O)N(C)[C@@H]3c3cccnc3)CC2)C1` , readout=EC50) returns 0.501

----------
In this section, each of the compounds is paired with its reported EC50.
Tested on: endogenous target monocytes in human PBMC
measurementProtocol: PBMC ex vivo monocyte depletion flow cytometry assay (Example 200)
Format: cell-based
testParameters: with anti-cotinine antibody (SEQ ID NO: 11/12), 18-24 hours, EC50 in molar, read-out: Ex Vivo Depletion Assay pEC50 (converted)
State the result as a value with its unit after it.

Some compounds with known EC50 results, for comparison:
| compound | property | recordedValue |
| --- | --- | --- |
| CC(C)N(C)[C@@H]1CC[C@H](N2CC[C@H](Nc3ncnc4ccc(C(F)(F)F)cc34)C2=O)[C@H](NC(=O)[C@H]2CC[C@@H](NC(=O)CCOCCCNC(=O)CCCNC(=O)[C@H]3CC(=O)N(C)[C@@H]3c3cccnc3)CC2)C1 [Example 17] | EC50 | 0.631 nM |
| CC(C)N(C)[C@@H]1CC[C@H](N2CC[C@H](Nc3ncnc4ccc(C(F)(F)F)cc34)C2=O)[C@H](NC(=O)COCCNC(=O)COCCNC(=O)COCCNC(=O)[C@H]2CC(=O)N(C)[C@@H]2c2cccnc2)C1 [Example 111] | EC50 | 5.01 nM |
| CC(C)N(C)[C@@H]1CC[C@H](N2CC[C@H](Nc3ncnc4ccc(C(F)(F)F)cc34)C2=O)[C@H](NC(=O)[C@H]2C[C@H](NC(=O)CCOCCOCCOCCNC(=O)[C@H]3CC(=O)N(C)[C@@H]3c3cccnc3)C2)C1 [Example 27] | EC50 | 10 nM |
| CN1C(=O)C[C@H](C(=O)NCCC(=O)NCCOCCOCCC(=O)N[C@H]2CC[C@@H](C(=O)N[C@@H]3C[C@H](NC(C)(C)C)CC[C@@H]3N3CC[C@H](Nc4ncnc5ccc(C(F)(F)F)cc45)C3=O)CC2)[C@H]1c1cccnc1 [Example 51] | EC50 | 0.631 nM |
| CC(C)N(C)[C@@H]1CC[C@H](N2CC[C@H](Nc3ncnc4ccc(C(F)(F)F)cc34)C2=O)[C@H](NC(=O)[C@H]2C[C@@H](NC(=O)CCOCCOCCNC(=O)CNC(=O)[C@H]3CC(=O)N(C)[C@@H]3c3cccnc3)C2)C1 [Example 66] | EC50 | 0.631 nM |
| CC(C)N(C)[C@@H]1CC[C@H](N2CC[C@H](Nc3ncnc4ccc(C(F)(F)F)cc34)C2=O)[C@H](NC(=O)[C@H]2CC[C@@H](NC(=O)COCCNC(=O)CCOCCNC(=O)[C@H]3CC(=O)N(C)[C@@H]3c3cccnc3)CC2)C1 [Example 152] | EC50 | 1.26 nM |

Documented EC50 of CC(C)N(C)[C@@H]1CC[C@H](N2CC[C@H](Nc3ncnc4ccc(C(F)(F)F)cc34)C2=O)[C@H](NC(=O)[C@H]2CC[C@@H](NC(=O)CCCOCCCOCCCNC(=O)[C@H]3CC(=O)N(C)[C@@H]3c3cccnc3)CC2)C1 [Example 193] : 0.2 nM

The compound identified as CC(C)N(C)[C@@H]1CC[C@H](N2CC[C@H](Nc3ncnc4ccc(C(F)(F)F)cc34)C2=O)[C@H](NC(=O)[C@H]2C[C@H](NC(=O)CCO[C@H]3CC[C@@H](OCCNC(=O)[C@H]4CC(=O)N(C)[C@@H]4c4cccnc4)CC3)C2)C1 [Example 116] registered its EC50 at 0.0398 nM
